Hello, the source for this data is patent US7799821B2, in case you need it.

Biological target: human EP2 receptors (Homo sapiens, UniProt P43116)
Construct: expressed in transfected cells; host or cells: HEK 293
Sequence (P43116 whole entry): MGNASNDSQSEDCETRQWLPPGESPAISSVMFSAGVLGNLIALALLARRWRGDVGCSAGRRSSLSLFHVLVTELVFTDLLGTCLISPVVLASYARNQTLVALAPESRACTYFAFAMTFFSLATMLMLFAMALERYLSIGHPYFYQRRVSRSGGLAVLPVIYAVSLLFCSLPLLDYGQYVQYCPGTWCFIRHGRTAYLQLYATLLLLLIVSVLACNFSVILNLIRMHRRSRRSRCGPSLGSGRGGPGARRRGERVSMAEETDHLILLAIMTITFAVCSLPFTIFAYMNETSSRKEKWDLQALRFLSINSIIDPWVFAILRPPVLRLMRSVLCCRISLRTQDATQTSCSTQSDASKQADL
Experiment: Competition radioligand binding ([3H]PGE2), EP2
Settings: unit inferred; read-out: EP2 data Ki
Protocol: Competition binding experiments were performed in a medium containing Hank's balanced salt solution, […], membranes (˜60 μg protein) or 2×10^5 cells from HEK 293 cells stably expressing human EP2 receptors, [^3H]PGE2 (10 nM) and various concentrations of test compounds in a total volume of 300 μl. […] [^3H-] […] 17-phenyl PGF2α and non-specific binding determined with 10^−5M of unlabeled PGE2, or 17-phenyl PGF2α, according to receptor subtype studied.
pKi: −log10 of the molar value.
value_kind: pKi

compound	pKi
CCCCCC(O)c1ccc(N2C(=O)CC[C@@H]2COc2ccc(C(=O)O)cc2)cc1 (stereo partly drawn) [drawing 185]	4.64

a: CC(C)(C)c1ccc(N2C(=O)CC[C@@H]2COCc2ccc(C(=O)O)o2)cc1
b: CCCC(O)c1ccc(N2C(=O)CC[C@@H]2COCc2ccc(C(=O)O)s2)cc1 (stereo partly drawn)
Min pKi? a | b Reply with the label of the item you choose. a

---

target: UniProt P43116
pIC50: −log10 of the molar value.
value_kind: pIC50

The cases that follow already have their pIC50 on record.
molecule	test_system	pIC50
COC(=O)CCC/C=C\C[C@@H]1[C@@H](c2ccc(C(C)(C)CO)cc2)[C@H](O)C[C@H]1Cl [drawing 117]	UniProt P43116	4.31
O=C(O)CCCCCC[C@@H]1[C@@H](c2ccc3c(c2)CCC3)[C@H](O)C[C@H]1Cl	UniProt P43116	5.20

a: CC(C)(CO)c1ccc([C@@H]2[C@@H](C/C=C\CCCC(=O)O)[C@H](Cl)C[C@H]2O)cc1 [drawing 118]
b: O=C(O)CCCCCC[C@@H]1[C@@H](c2ccc3c(c2)CCC3O)[C@H](O)C[C@H]1Cl (stereo partly drawn)
c: O=C(O)CCC/C=C\C[C@H]1C(=O)C[C@@H](O)[C@@H]1c1ccc2c(c1)CCC2O (stereo partly drawn)
Please give the order of these molecules when sorted by pIC50, largest value leading. Provide the ranking by listing each label in its place in the requested order. c, a, b

---

Molecular target: hDP/Gqs5 (Homo sapiens)
Construct: expressed in transfected cells; host or cells: HEK-293(EBNA)
Sequence (Q13258 1-359): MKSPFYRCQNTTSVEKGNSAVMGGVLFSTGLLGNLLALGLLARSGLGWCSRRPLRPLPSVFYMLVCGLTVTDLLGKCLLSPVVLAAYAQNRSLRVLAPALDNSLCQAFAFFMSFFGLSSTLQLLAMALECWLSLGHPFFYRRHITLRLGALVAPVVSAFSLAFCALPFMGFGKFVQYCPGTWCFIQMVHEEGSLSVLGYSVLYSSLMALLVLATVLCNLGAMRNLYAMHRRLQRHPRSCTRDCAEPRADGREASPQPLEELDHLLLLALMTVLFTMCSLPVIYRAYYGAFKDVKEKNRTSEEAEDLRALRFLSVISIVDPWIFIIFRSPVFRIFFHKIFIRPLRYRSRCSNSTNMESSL
Assay: FLIPR calcium signal, hDP
Assay type: cell-based
Conditions: read-out: Other Receptors EC50 hDP
value_kind: EC50 (µM)

The cases that follow already have their EC50 on record.
compound	unit_info	data_value
CCCCCC(O)c1ccc(N2C(=O)CC[C@@H]2CCCc2ccc(C(=O)O)s2)cc1 (single isomer, unassigned) [drawing 180]	µM	6.83
CCCCCC(O)c1ccc(N2C(=O)CC[C@@H]2COCc2ccc(C(=O)O)s2)cc1 (single isomer, unassigned) [drawing 148]	µM	7.75

1: CCCCCCC(O)c1ccc(N2C(=O)CC[C@@H]2COCc2ccc(C(=O)O)s2)cc1 (stereo partly shown) [drawing 141]
2: CC(C)(C)c1ccc(N2C(=O)CC[C@@H]2COCc2ccc(C(=O)O)o2)cc1
Min EC50? 1 | 2 Reply with the label of the item you choose. 2

---

biological target: human EP2 receptors (Homo sapiens, UniProt P43116); construct: expressed in transfected cells; host or cells: HEK 293; assay: Competition radioligand binding ([3H]PGE2), EP2; settings: unit inferred; read-out: EP2 data Ki
pKi: −log10 of the molar value.
value_kind: pKi

molecule	pKi
CCCCCC(O)c1ccc(N2C(=O)CC[C@@H]2COCc2ccc(C(=O)O)s2)cc1 (single isomer, unassigned) [drawing 176]	6.46
CCCCCCC(O)c1ccc(N2C(=O)CC[C@@H]2COCc2ccc(C(=O)O)s2)cc1 (stereo partly drawn) [drawing 169]	6.72

a: CCCCCC(O)c1ccc(N2C(=O)CC[C@@H]2COc2ccc(C(=O)O)cc2)cc1 (stereo partly drawn) [drawing 157]
b: CCCCCC(O)c1ccc(N2C(=O)CC[C@@H]2CCCc2ccc(C(=O)O)s2)cc1 (single isomer, unassigned) [drawing 178]
c: CCCCC(O)c1ccc(N2C(=O)CC[C@@H]2COCc2ccc(C(=O)O)s2)cc1 (stereo partly drawn)
d: CCCCCC(O)c1ccc(N2C(=O)CC[C@@H]2CCCc2ccc(C(=O)O)s2)cc1 (single isomer, unassigned) [drawing 180]
e: CCCCCC(O)c1ccc(N2C(=O)CC[C@@H]2COCc2ccc(C(=O)O)s2)cc1 (stereo partly drawn)
Put the molecules in ascending order of pKi. Provide the ranking by listing each label in its place in the requested order. a, c, d, e, b

1: CC(C)(C)c1ccc(N2C(=O)CC[C@@H]2COCc2ccc(C(=O)O)s2)cc1
2: CCCCCCC(O)c1ccc(N2C(=O)CC[C@@H]2CCCc2ccc(C(=O)O)s2)cc1 (single isomer, unassigned) [drawing 155]
3: CCCCCC(O)c1ccc(N2C(=O)CC[C@@H]2COCc2ccc(C(=O)O)s2)cc1 (single isomer, unassigned) [drawing 149]
Put the molecules in ascending order of pKi. Provide the ranking by listing each label in its place in the requested order. 1, 3, 2

---

Target: hEP1 (Homo sapiens, UniProt P34995)
Construct: expressed in transfected cells; host or cells: HEK-293(EBNA)
Sequence (P34995 1-402): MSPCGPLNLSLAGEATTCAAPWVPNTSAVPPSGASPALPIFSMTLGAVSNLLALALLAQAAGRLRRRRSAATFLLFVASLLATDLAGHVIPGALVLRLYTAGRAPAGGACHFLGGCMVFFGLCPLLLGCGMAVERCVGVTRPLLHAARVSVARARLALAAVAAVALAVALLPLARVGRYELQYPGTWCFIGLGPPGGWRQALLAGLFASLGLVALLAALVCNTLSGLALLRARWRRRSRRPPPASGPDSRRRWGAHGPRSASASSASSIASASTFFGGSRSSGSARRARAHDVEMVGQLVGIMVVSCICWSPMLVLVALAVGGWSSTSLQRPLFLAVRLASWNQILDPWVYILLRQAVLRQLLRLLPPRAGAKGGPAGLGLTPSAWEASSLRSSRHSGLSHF
Assay: FLIPR calcium signal, hEP1
Assay type: cell-based
Settings: read-out: Other Receptors EC50 hEP1
pEC50: −log10 of the molar value.
value_kind: pEC50

molecule	pEC50
CCCCCCC(O)c1ccc(N2C(=O)CC[C@@H]2CCCc2ccc(C(=O)O)s2)cc1 (single isomer, unassigned) [drawing 155]	5.16
CCCCCCC(O)c1ccc(N2C(=O)CC[C@@H]2CCCc2ccc(C(=O)O)s2)cc1 (single isomer, unassigned) [drawing 183]	5.16

---

Biological target: HEK-EBNA cells expressing a PG EP2 receptor subtype (Homo sapiens)
Construct: expressed in transfected cells; host or cells: HEK-EBNA
Sequence (P43116 whole entry): as the sequence (P43116 whole entry) above
Assay: cAMP assay, EP2
Type: cell-based
Settings: unit inferred; read-out: EP2 data cAMP EC50
Procedure: A 384-well drug plate was prepared to contain 6 test compounds, PGE2 and cAMP in 16 serial dilutions in triplicate, using a Biomek station. HEK-EBNA cells expressing a target PG receptor subtype (EP2 or EP4) were suspended in a stimulation buffer (HBSS, 0.1% BSA, 0.5 mM IBMX and 5 mM HEPES, pH 7.4) in a density of 10^4 cells/5 μl. […] Fluorescence changes were read using a Fusion-alpha HT microplate reader.
pEC50: −log10 of the molar value.
value_kind: pEC50

molecule	pEC50
CC(C)C(O)c1ccc(N2C(=O)CC[C@@H]2COCc2ccc(C(=O)O)o2)cc1 (stereo partly drawn)	5.91
CCCCCC(O)c1ccc(N2C(=O)CC[C@@H]2COCc2ccc(C(=O)O)o2)cc1 (stereo partly drawn)	7.59
CCCCCC(O)c1ccc(N2C(=O)CC[C@@H]2CCCc2ccc(C(=O)O)s2)cc1 (stereo partly drawn) [drawing 173]	9.26
CCCCCC(O)c1ccc(N2C(=O)CC[C@@H]2CCCc2ccc(C(=O)O)s2)cc1 (single isomer, unassigned) [drawing 151]	9.82
CCCCCCC(O)c1ccc(N2C(=O)CC[C@@H]2CCCc2ccc(C(=O)O)s2)cc1 (single isomer, unassigned) [drawing 156]	9.22
CCCCCCC(O)c1ccc(N2C(=O)CC[C@@H]2CCCc2ccc(C(=O)O)s2)cc1 (single isomer, unassigned) [drawing 183]	8.85

P: CCCCCCC(O)c1ccc(N2C(=O)CC[C@@H]2COCc2ccc(C(=O)O)s2)cc1 (single isomer, unassigned) [drawing 181]
Q: CCCCCC(O)c1ccc(N2C(=O)CC[C@@H]2CCCc2ccc(C(=O)O)s2)cc1 (stereo partly drawn) [drawing 145]
R: CCCCCC(O)c1ccc(N2C(=O)CC[C@@H]2COCc2ccc(C(=O)O)s2)cc1 (single isomer, unassigned) [drawing 177]
Please give the order of these molecules when sorted by pEC50, largest value leading. Provide the ranking by listing each label in its place in the requested order. Q, R, P
(Q: 9.26, R: 8.82, P: 8.40)
